Collected pIC50 values appear next to each entry.
# System: MOLM-13 (MLL-AF9)
# Assay Details: LTP assay, CellTiterGlo, T4-T14 (Example 103), MOLM-13
# Type: cell-based, human
# Condition: Homo sapiens, MOLM-13, MOLM-13 (MLL-AF9), T11; read-out: IC50 T11
pIC50: −log10 of the molar value.

>  <Structure Smiles String>
Cn1nc(-c2cccnc2)cc1CC(=O)Nc1ccc(-c2cc3c(N4CCOCC4)ncnc3[nH]2)cc1

>  <Cmp>
=

>  <pIC50>
6.49

$$$$
>  <Structure Smiles String>
O=C(Cc1cc(-c2cccnc2)n[nH]1)Nc1ccc(-c2nc3c(N4CCOCC4)ncnc3[nH]2)cc1

>  <Cmp>
=

>  <pIC50>
6.25

$$$$
>  <Structure Smiles String>
O=C(Nc1ccc(-c2nc3c(N4CCOCC4)nccc3[nH]2)cc1)Nc1cc(-c2cccnc2)n[nH]1

>  <Cmp>
=

>  <pIC50>
6.11

$$$$
>  <Structure Smiles String>
Cc1nccc2[nH]c(-c3ccc(NC(=O)Cc4cc(-c5cccnc5)n[nH]4)cc3)nc12

>  <Cmp>
<

>  <pIC50>
5.30

$$$$
>  <Structure Smiles String>
Cc1cn(-c2nccc3[nH]c(-c4ccc(NC(=O)Cc5cc(-c6cccnc6)n[nH]5)cc4)nc23)cn1

>  <Cmp>
<

>  <pIC50>
5.30

$$$$
>  <Structure Smiles String>
Cc1ccc(-c2cc(CC(=O)Nc3ccc(-c4nc5c(N6CCOCC6)nccc5[nH]4)cc3)[nH]n2)cn1

>  <Cmp>
<

>  <pIC50>
5.30

$$$$

// provenance: patent US20240140953A1
